# IC50 per record follows
- System: CD74
- Assay Procedure: Cell-based ELISA for constitutive CD74 expression
- Design: species or system human
- Reported Conditions: NCI-N87 cells, 48 h; mean of duplicate experiments; unit printed in b25 only; read-out: IC50 (50% inhibitory concentration) for constitutive CD74 expression
Kindly answer with a numeric value in µM, unit omitted.

- O=c1c(O)c(-c2ccc(O)c(O)c2)oc2cc(O)cc(O)c12: 19.8

Lookup: Query (compound): CC(C)=CCC/C(C)=C/COc1c2ccoc2cc2oc(=O)ccc12 ; field requested: IC50
Found: 14.2

Lookup: Query (compound): CC(C)=CC(=O)CC(C)c1ccc(C)cc1 (centres unmarked) ; field requested: IC50
Found: 30.8

Lookup: Query (compound): O=C(O)c1cc(O)c(O)c(O)c1 ; field requested: IC50
Found: 96.4

Lookup: Query (compound): CC(C)=CCC/C(C)=C/COc1ccc2ccc(=O)oc2c1 ; field requested: IC50
Found: 19.8

Lookup: Query (compound): COc1ccc(-c2cc(=O)c3c(OC)c(OC)c(OC)c(OC)c3o2)cc1 ; field requested: IC50
Found: 39.5

Lookup: Query (compound): Oc1cc(O)c2c(c1)O[C@@H](c1ccc(O)c(O)c1)[C@H](O)C2 [(−)-Catechin] ; field requested: IC50
Found: 69.2

Lookup: Query (compound): COc1ccc(-c2cc(=O)c3c(OC)c(OC)c(OC)c(OC)c3o2)cc1OC ; field requested: IC50
Found: 18.8

Lookup: Query (compound): O=c1c(-c2ccc(O)cc2)coc2cc(O)cc(O)c12 ; field requested: IC50
Found: 20.5

Lookup: Query (compound): C/C1=C\CC(C)(C)/C=C/C(=O)/C(C)=C/CC1 ; field requested: IC50
Found: 17.7

Lookup: Query (compound): O=c1cc(-c2ccc(O)c(O)c2)oc2cc(O)cc(O)c12 ; field requested: IC50
Found: 18.4
